- Tested on: Raynaud's Phenomenon (RP) attacks in participants with SSc-RP
- method: Average duration of weekly RP attacks (symptomatic / all attacks), patient diary, Phase 2a Part A
- Format: in vivo, human
- particulars: Excluding Outliers; ITT Population-Part A; last 7 days of screening period, before dosing
readoutName: Average Duration of Weekly RP Attacks (All Attacks), Baseline, Median (min)

COCCOC(=O)C1=C(C)NC(C)=C(C(=O)OC/C=C/c2ccccc2)C1c1cccc([N+](=O)[O-])c1 (stereo not shown) [Cilnidipine 20 mg] | 17.81
COCCOC(=O)C1=C(C)NC(C)=C(C(=O)OC/C=C/c2ccccc2)C1c1cccc([N+](=O)[O-])c1 (stereo not shown) [Pooled Cilnidipine] | 25.00
CN1CC(=O)N2[C@H](c3ccc4c(c3)OCO4)c3[nH]c4ccccc4c3C[C@@H]2C1=O | 10.92
COCCOC(=O)C1=C(C)NC(C)=C(C(=O)OC/C=C/c2ccccc2)C1c1cccc([N+](=O)[O-])c1 (stereo not shown) [Cilnidipine 10 mg] | 40.00

* * *

- Tested on: Raynaud's Phenomenon (RP) attacks in participants with SSc-RP
- method: Average duration of weekly RP attacks (symptomatic / all attacks), patient diary, Phase 2a Part A
- Type: in vivo, human
- particulars: Excluding Outliers; ITT Population-Part A; last 7 days of screening period, before dosing
Overview of reported Average Duration of Weekly RP Attacks (All Attacks), Baseline, Mean across a group of compounds:
readoutName: Average Duration of Weekly RP Attacks (All Attacks), Baseline, Mean (min)

COCCOC(=O)C1=C(C)NC(C)=C(C(=O)OC/C=C/c2ccccc2)C1c1cccc([N+](=O)[O-])c1 (stereo not shown) [Cilnidipine 20 mg] | 17.81
COCCOC(=O)C1=C(C)NC(C)=C(C(=O)OC/C=C/c2ccccc2)C1c1cccc([N+](=O)[O-])c1 (stereo not shown) [Cilnidipine 10 mg] | 40.00
COCCOC(=O)C1=C(C)NC(C)=C(C(=O)OC/C=C/c2ccccc2)C1c1cccc([N+](=O)[O-])c1 (stereo not shown) [Pooled Cilnidipine] | 25.21
CN1CC(=O)N2[C@H](c3ccc4c(c3)OCO4)c3[nH]c4ccccc4c3C[C@@H]2C1=O | 10.92
